Test summary: MDCK-mdr1 cell permeability
Type: in vitro ADME
Recorded conditions: dog; MDCK-mdr1, BA
Endpoint name: Papp B→A
Write the figure, then the unit, nothing else.

Query: Report Papp B→A for Cc1ccccc1OCC(=O)Nc1ccc2cnn(C)c2c1 [Compound 34]
Response: 6.6 ×10⁻⁶ cm/s

* * *

Test summary: Metabolic stability in human liver microsomes
Format: in vitro ADME
Recorded conditions: NADPH independent metabolism
Endpoint name: half-life (min)
Response body: numeric value in min, unit text excluded.

Worked cases, answers included:
[
  {
    "Compound": "Cc1ccccc1OCC(=O)Nc1ccc2cnn(C)c2c1 [Compound 34]",
    "Units symbol": "min",
    "half-life": 11.6
  },
  {
    "Compound": "Cc1ccccc1OCC(=O)Nc1ccc2cn(C(C)C)nc2c1 [Compound 38]",
    "Units symbol": "min",
    "half-life": 5.1
  }
]

Query: Report half-life for Cc1ccccc1OCC(=O)Nc1ccc2cnccc2c1 [Compound 45]
Response: 12.1

* * *

Test summary: Metabolic stability in mouse liver microsomes
Assay type: in vitro ADME
Recorded conditions: mouse, liver microsomes; NADPH independent metabolism
Endpoint name: half-life (min)
Response body: numeric value in min, unit text excluded.

Worked cases, answers included:
[
  {
    "Chemical structure": "Cc1ccccc1OCC(=O)Nc1cccnc1",
    "Endpoint name": "half-life",
    "Units symbol": "min",
    "Measured": 1.1
  },
  {
    "Chemical structure": "Cc1ccccc1OCC(=O)Nc1ccc2cnccc2c1",
    "Endpoint name": "half-life",
    "Units symbol": "min",
    "Measured": 11
  }
]

Query: Report half-life for O=C(COc1ccccc1Cl)Nc1ccc2cnccc2c1
Response: 3.3

Query: Report half-life for Cc1ccccc1OCC(=O)Nc1ccc2nn[nH]c2c1
Response: 1.8

Query: Report half-life for Cc1ccccc1OCC(=O)Nc1ccc2cn(C(C)C)nc2c1
Response: 5.7

* * *

Test summary: Metabolic stability in mouse liver microsomes
Assay type: in vitro ADME
Recorded conditions: mouse, mouse liver microsomes; NADPH independent metabolism
Endpoint name: half-life (min)
Response body: numeric value in min, unit text excluded.

Query: Report half-life for Cc1ccccc1N(C)CC(=O)Nc1ccc2cnn(C)c2c1
Response: 5.2

* * *

Test summary: Aqueous thermodynamic solubility
Format: physicochemical
Recorded conditions: aqueous medium (not further specified), thermodynamic from solid
Endpoint name: solubility thermodynamic (µg/mL)
Response body: numeric value in µg/mL, unit text excluded.

Query: Report solubility thermodynamic for Cc1ccccc1OCC(=O)Nc1ccc2cnn(C)c2c1
Response: 2

Taken from paper PMC6727465.
